Hello, the source for this data is patent US8853424B2, in case you need it.

Recorded TGase activity remaining (% of DMSO control = 100) by entry
# System: transglutaminase (TGase)
# test_summary: Measurement of TG (TGase inhibitory activity, monodansyl cadaverine / N,N-dimethylcasein fluorescence, FDSS 3000)
# Format: biochemical
# setup_conditions: TGase inhibitory activity value, Table 1
The reply should be a number, written without any unit.

- OB(c1ccc(COCc2cccc(B(O)c3cc(F)c(F)c(F)c3)c2)cc1)c1cc(F)c(F)c(F)c1 [Example 342]: 114
- OB(c1ccccc1)c1ccc(B(O)c2ccccc2)o1 [Example 383, bis(2,5-(phenylhydroxyboryl))furan]: 103
- NCCSB(c1ccc(Cl)cc1F)c1ccc(Cl)cc1F [Example 1]: 28
- NCCSB(c1ccccc1)c1ccc(-c2ccc(B(SCCN)c3ccccc3)cc2)cc1 [Example 9]: 12
- O=C(OB(c1ccccc1)c1ccccc1)C1CCCN1 (stereo not drawn) [Example 277, diphenyl(prolinate-O,N)borane]: 105

Item OB(c1ccccc1)c1cc(B(O)c2ccccc2)cc(B(O)c2ccccc2)c1 [Example 130, 1,3,5-tri(phenylhydroxyboryl)benzene] has what recorded TGase activity remaining (% of DMSO control = 100)?
116

Item N#Cc1ccc(B(OCCNCc2ccccc2)c2ccc(C#N)cc2)cc1 [Example 105] has what recorded TGase activity remaining (% of DMSO control = 100)?
92

====

# Tested on: transglutaminase (TGase)
# test_summary: Measurement of TG (TGase inhibitory activity, monodansyl cadaverine / N,N-dimethylcasein fluorescence, FDSS 3000)
# Assay type: biochemical
# setup_conditions: TGase activity with compound (10 mM, 1 μL in 0.1 ml enzyme reaction solution); DMSO control taken as 100
recorded_endpoint: TGase activity remaining (% of DMSO control = 100)

Here are 7 compounds together with their reported answers.
• NCCOB(c1ccccc1)c1ccccc1COCc1ccccc1B(OCCN)c1ccccc1 = 68
• CC(C)(C)B(O)c1ccccc1 = 108
• OB(c1ccc(Cl)c(F)c1)c1ccc(Cl)c(F)c1 [Example 231, di(3-fluoro-4-chlorophenyl)borinic acid] = 94
• NCCCCC(N)C(=O)OB(c1ccccc1)c1ccc(Oc2ccc(B(OC(=O)C(N)CCCCN)c3ccccc3)cc2)cc1 (centres unmarked) = 119
• Cc1ccc(B(Sc2ccccc2N)c2ccc(C)c(Cl)c2)cc1Cl = 12
• OB(c1ccc(Cl)c(F)c1)c1ccc(Cl)c(F)c1 [Example 83, bis(3-fluoro-4-chlorophenyl)borinic acid] = 101
• Cc1ccc(B(OC(=O)C(N)C(C)O)c2ccc(C)c(Cl)c2)cc1Cl (centres unmarked) = 50

Turning to the following compound.
Item CN1CCCCC1COB(c1ccccc1)c1ccc(COCc2ccc(B(OCC3CCCCN3C)c3ccccc3)cc2)cc1 (centres unmarked) has what recorded TGase activity remaining (% of DMSO control = 100)?
30

====

# System: transglutaminase (TGase)
# test_summary: Measurement of TG (TGase inhibitory activity, monodansyl cadaverine / N,N-dimethylcasein fluorescence, FDSS 3000)
# Type: biochemical
# setup_conditions: TGase activity with compound (10 mM, 1 μL in 0.1 ml enzyme reaction solution); DMSO control taken as 100
Recorded TGase activity remaining (% of DMSO control = 100) by entry
The reply should be a number, written without any unit.

Here are 2 molecules together with their reported answers.
• NCCOB(c1ccccc1)c1ccccc1 [Example 487, 2-aminoethyl diphenylborinate] = 90
• FC(F)(F)c1ccc(C(OB(c2ccccc2)c2ccc(COCc3ccc(B(OC(c4ccc(C(F)(F)F)cc4)c4ccccn4)c4ccccc4)cc3)cc2)c2ccccn2)cc1 (stereo not shown) [Example 149] = 96

Turning to the following molecule.
Provide the documented TGase activity remaining (% of DMSO control = 100) with transglutaminase (TGase) as the system for OB(c1ccccc1)c1ccc(B(O)c2ccccc2)o1 [Example 383, bis(2,5-(phenylhydroxyboryl))furan]
103
